targetOrTestSystem: HLA-A*68:01 (Homo sapiens, UniProt P04439, A269V/D185E/E176V/E277Q/E87N/F33Y/G231S/I121M/I166T/I218V/L180W/L300P/L318F/N151K/P208A/P217A/Q86R/R169H/T345S)
Type: binding
conditions: time points 0-8 h
Entries and their O-rate A*68:01 (t1/2) values follow.
measuredQuantity: O-rate A*68:01 (t1/2) (h)

substance	observed
AMGDAGGYK	3.2
TMAMMARDT [Rv0288_80–88]	2.7
SSAMILAAY	1.8
FVRSSNLKF	0.1
DW YSPACGK	0.6
EAAASAIQG [Rv3875_12–20]	0.8
DLVRAYHAM [Rv0288_64–72wt]	3.3
NFVRSSNLK	0.2
GT HSWEYWG	0.2
WQGDTGITY [Rv0288_43–51]	6.0
ETFLTSELP	0.1
EANTMAMMA [Rv0288_77–85]	1.9
EQAALQSAW [Rv0288_35–43]	2.8
AAYHPQQFI	3.8
QSSFYSDWY	0.4
EAYQGVQQK [Rv3875_49–57]	7.5
WGAQLNAMK	2.4
NTPAFEWYY	0.2
AVFNFPPNG	0.2
ITYQAWQAQ [Rv0288_49–57]	1.9
HAMSSTHEA [Rv0288_70–78]	0.5
SSFYSDWYS	0.1
LSMAGSSAM	2.2
QT YKWETFL	0.7
QAWQAQWNQ [Rv0288_52–60]	3.0
MAMMARDTA [Rv0288_81–89]	2.0
RDTAEAAKW [Rv0288_86–94]	4.3
AVYLLDGLR	1.1
NTMAMMARD [Rv0288_79–87]	2.3
ANTMAMMAR [Rv0288_78–86]	2.4
